Target: T1, Human IgG1, purified from a human plasma (Sigma-Aldrich Cat #I-5154) (human)
T1 construct: also called HuIgG1
Assay: ELISA, periplasmic extract on coated antigen, anti-myc detection
The following binders are shown together with reported OD values.
The reply must contain the numeric value and, after it, the unit.

Recorded OD, per entry:
- CD8086PMP1B2 (VHH, not shown: C-terminal c-myc tag and His6 tag) VHH: EVQLVESGGGLVQAGGSLRLSCAASGRSFSSYVMGWFRQAPGKEREFVAAIIGRDIGTYYADSVKGRFTISRDNAKTTVYLQMNALKPEDTAVYYCAADSRSRLSGIRSAYDYWGQGTVTVSS: 0.046 OD
- CD8086PMP2A7 (VHH, not shown: C-terminal c-myc tag and His6 tag) VHH: EVQLVESGGGLVQAGGSLRLSCAASGRTFSSKAMGWFRQAPGKERDFVAAITWSGGSTYYADHVKGRFTISRDNAKNTVYLQMNSLKPEDTAVYYCATNPYGLGQVGYDYWGQGTQVTVSS: 0.043 OD
- CD8086PMP1A3 (VHH, not shown: C-terminal c-myc tag and His6 tag) VHH: EVQLVESGGGLVQAGGSLRLSCAASGPTSSSYSMGWFRQAPGKEREFVAAINWSHGVTYYADSVKGRFTISRDIAKNTVYLQMNSLKPEDTAVYYCAANEYGLGSSIYAYKHWGQGTQVTVSS: 0.052 OD

stdin: Please indicate OD recorded for CD8086PMP2F5 (VHH, not shown: C-terminal c-myc tag and His6 tag) VHH: EVQLVKSGGGLVQAGGSLRLSCAASGSIFSIYDMGWYRQAPGKQRELVAAITSGGSTNYADSVKGRFTISRDNAKNTVYLQMNSLKPEDTAVYYCNAIAYEEGVYRWDFWGQGTQVTVSS
stdout: 0.056 OD

stdin: Kindly indicate its recorded OD. Item: CD8086PMP1D1 (VHH, not shown: C-terminal c-myc tag and His6 tag) VHH: EVQLVESGGGLVQAGGSLRLSCAASGRTFSSKAMGWFRQAPGKERDFVAAITWSGGSTYYADHVKGRFTISRDNAKNTVYLQMNSLKPEDTAVYYCATNPYGLGQVGYDYWGQGTQVTVSS
stdout: 0.046 OD

stdin: Quickly give me recorded OD for CD8086PMP2B10 (VHH, not shown: C-terminal c-myc tag and His6 tag) VHH: EVQLVESGGGLVQAGGSLRLSCTGSQISFSDNTMNWYRQVPGKQRELVASLSIFGATGYADSVKGRFTISRDIAGNTVYLQMNDLKIEDTAVYYCKLGPVRRSRLEYWGQGTQVTVSS
stdout: 0.044 OD

stdin: Give OD for the following binder: CD8086PMP2E6 (VHH, not shown: C-terminal c-myc tag and His6 tag) VHH: EVQLVESGGGLVQAGGSLRLSCAASGSIFSIYDMGWYRQAPGKQRVLVATITSGGSTNYADSVKGRFTISRDDAKNTVYLQMNSLKPEDTAVYYCNAIAHEEGVYRWDFWGQGTQVTVSS
stdout: 0.049 OD
